These entries and their values trace back to the supplement of paper PMC6555819.

Examples of sequences with documented PBM binding z-score follow.
system: RARb:RXRa (NR concentration 270 nM, RXRa partner concentration 90 nM); test: PBM binding z-score (relative to random genomic background probes); higher = stronger binding; sequences stand for … in GC…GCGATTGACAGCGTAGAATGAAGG

Use the examples below as a reference point.
| Sequence Code | PBM binding z-score |
| --- | --- |
| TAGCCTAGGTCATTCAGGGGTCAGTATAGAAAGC | 4.81 |
| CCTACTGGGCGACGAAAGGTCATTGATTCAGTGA | 3.75 |
| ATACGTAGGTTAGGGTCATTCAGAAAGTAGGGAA | 3.39 |
| CTATGTAGGTTGAGGGGGTCATTCAGTTTGAAAG | 3.4 |
| TAGCCTCGGTCATTCAGGGGCCAGTATAGAAAGC | 2.68 |

Look up PBM binding z-score: TCGAGTAGGTTCCGGGGGCATTCAGGGATGAAGA
1.17

Look up PBM binding z-score: ATATGTACGTTAGGGTCATTCAGAAAGTAGGGAA
3.1

Look up PBM binding z-score: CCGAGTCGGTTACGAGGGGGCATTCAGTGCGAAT
1.12

Look up PBM binding z-score: CCTAGTTGGCCAAGGTCACACACGCTATAGGTAC
3.8

---

tested on: RARb homodimer (NR concentration 270 nM); assay: PBM binding z-score (relative to random genomic background probes); higher = stronger binding; sequences stand for … in GC…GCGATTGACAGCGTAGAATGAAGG
Value Type: PBM binding z-score
When you answer, write just the number.

Use the examples below as a reference point.
| Sequence Code | PBM binding z-score |
| --- | --- |
| GATACAGGGTGAGCTAGAGGCCAGAGTATGGAAA | 0.626 |
| ATATGGAGGTTAGCTGGGGTCATTCAGACTAGGC | 4.32 |
| CTATGTAGGTTAAGGGGGGCATTCAGTTTGAAAG | 2.88 |
| TAGCCTAGGACATGCGGGCCAGTATAGTGTCGGC | -0.329 |
| CGTCCAAGGTCATACGAGGTCAGTGAAGACAGAT | 5.34 |
| CATACCGGGTCAGCTAGGCCAGAGTAGGGACGGC | 2.34 |
| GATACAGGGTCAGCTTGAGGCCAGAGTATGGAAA | 2.94 |
| ATACCAAGGTGATCGTGAGTTCGTTGATACTAAC | 0.465 |
| CGTCCAAGGTCAGAGAGGTCATTGAATGCCGAGT | 5.86 |
| CCGAGTAGGTTATGAGGGGGCATTCAGTGCGAAT | 2.32 |

Look up PBM binding z-score: TAGCCTAGGTCATGCGGGTCAGTATAGTGTCGGC
4.27

Look up PBM binding z-score: CGAACTAGGTCAAAGGACAGTGGAAGGCGACGTA
3.07

Look up PBM binding z-score: CGTACTAGGTCAAAGGACAGTGAAAGGCGACGTA
2.87

Look up PBM binding z-score: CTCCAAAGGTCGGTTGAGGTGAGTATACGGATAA
2.61

Look up PBM binding z-score: GATAGTTGGTCAGTAAAAGGTCACACACCGGTCG
5.36

Look up PBM binding z-score: CCTAGCAGACCAATCTGGGTCACTCAAGGCTTGA
1.75
